Target: T1R umami taste receptor (Homo sapiens, UniProt Q7RTX0+Q7RTX1)
Sequence (Q7RTX1 21-841): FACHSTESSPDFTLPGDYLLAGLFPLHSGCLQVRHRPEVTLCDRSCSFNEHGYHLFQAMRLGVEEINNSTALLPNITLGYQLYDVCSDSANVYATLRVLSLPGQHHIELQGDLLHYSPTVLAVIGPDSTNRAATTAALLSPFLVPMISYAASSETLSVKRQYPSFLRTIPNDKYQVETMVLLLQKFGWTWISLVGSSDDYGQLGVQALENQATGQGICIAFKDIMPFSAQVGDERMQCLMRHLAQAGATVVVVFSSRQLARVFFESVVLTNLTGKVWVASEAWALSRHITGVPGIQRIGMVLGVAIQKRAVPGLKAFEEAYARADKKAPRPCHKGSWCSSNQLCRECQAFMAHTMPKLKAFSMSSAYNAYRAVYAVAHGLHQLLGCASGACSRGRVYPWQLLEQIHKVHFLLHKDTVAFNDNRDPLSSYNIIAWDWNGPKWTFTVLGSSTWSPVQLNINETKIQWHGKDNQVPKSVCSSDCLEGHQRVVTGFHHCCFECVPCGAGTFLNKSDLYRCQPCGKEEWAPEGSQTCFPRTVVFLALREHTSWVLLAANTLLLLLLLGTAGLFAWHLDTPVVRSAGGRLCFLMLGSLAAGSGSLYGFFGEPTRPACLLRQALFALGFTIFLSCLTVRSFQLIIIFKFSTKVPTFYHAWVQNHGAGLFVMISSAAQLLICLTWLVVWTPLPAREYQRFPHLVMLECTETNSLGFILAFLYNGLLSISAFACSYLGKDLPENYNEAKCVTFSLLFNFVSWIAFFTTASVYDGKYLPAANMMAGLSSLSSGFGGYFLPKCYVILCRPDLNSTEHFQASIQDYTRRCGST
Sequence (Q7RTX0 21-852): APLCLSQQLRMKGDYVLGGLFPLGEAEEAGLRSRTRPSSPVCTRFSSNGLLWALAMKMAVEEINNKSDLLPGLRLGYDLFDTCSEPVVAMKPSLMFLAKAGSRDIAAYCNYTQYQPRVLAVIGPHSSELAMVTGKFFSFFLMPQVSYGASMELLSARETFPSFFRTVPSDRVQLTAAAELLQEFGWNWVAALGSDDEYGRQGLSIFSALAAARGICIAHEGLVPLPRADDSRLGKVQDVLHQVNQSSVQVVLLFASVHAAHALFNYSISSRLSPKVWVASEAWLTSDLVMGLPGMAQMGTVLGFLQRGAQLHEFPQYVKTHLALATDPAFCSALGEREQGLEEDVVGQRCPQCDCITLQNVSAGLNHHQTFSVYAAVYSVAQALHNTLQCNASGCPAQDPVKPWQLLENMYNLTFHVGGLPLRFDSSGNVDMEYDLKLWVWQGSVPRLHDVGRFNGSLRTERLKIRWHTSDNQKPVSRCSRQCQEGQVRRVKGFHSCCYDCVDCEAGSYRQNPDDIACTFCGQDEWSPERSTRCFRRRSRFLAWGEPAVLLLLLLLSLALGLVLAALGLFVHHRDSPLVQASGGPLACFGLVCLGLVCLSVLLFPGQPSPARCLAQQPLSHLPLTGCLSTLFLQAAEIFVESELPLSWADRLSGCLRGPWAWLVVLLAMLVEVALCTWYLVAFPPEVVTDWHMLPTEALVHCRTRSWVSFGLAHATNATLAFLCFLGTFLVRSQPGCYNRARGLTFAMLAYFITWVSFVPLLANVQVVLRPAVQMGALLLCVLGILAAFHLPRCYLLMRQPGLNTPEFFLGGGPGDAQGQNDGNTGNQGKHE
Experiment: in vitro cell-based assay, enhancement of MSG binding
Details: cells that express the T1R umami taste receptor
Protocol: Each of the compounds set forth in Table 2 were synthesized according to one of the general procedures set forth above in Example 1 or 2. Thereafter, the compounds were tested in an in vitro cell-based assay having cells that express the T1R umami taste receptor. Dose-binding curves were recorded and the EC50 was determined for enhancement of MSG binding. Table 2 sets forth the calculated EC50 values for certain tested compounds.
Property: EC50 (µM)

[I] C/C=C(\C)C(=O)NCCC[C@H](NC(=O)c1ccc(C)cc1)C(=O)OC
[II] C/C=C(\C)C(=O)NCCC[C@H](NC(=O)c1ccccc1)C(=O)OCC
[III] C/C=C(\C)C(=O)NCCC[C@H](NC(=O)/C=C/c1ccccc1)C(=O)OC
[IV] C/C=C(\C)C(=O)NCCC[C@H](NC(=O)/C=C/c1ccccc1OC)C(=O)OC
Problem: List the 4 entries from lowest EC50 to highest EC50 value. Quick reminder: the answer is the labels in the order asked.
Result: III, IV, I, II

====

biological target: T1R umami taste receptor (Homo sapiens, UniProt Q7RTX0+Q7RTX1); experiment: in vitro cell-based assay, enhancement of MSG binding; conditions: cells that express the T1R umami taste receptor
Property: EC50 (nM)

The examples below pair each entry with its known result.
CCOC(=O)[C@H](CCCNC(=O)c1ccccc1)NC(=O)c1ccccc1; 2000
C/C=C(\C)C(=O)NCCC[C@H](NC(=O)/C=C/c1ccc(OC)cc1)C(=O)OC; 640

[1] C/C=C(\C)C(=O)NCCC[C@H](NC(=O)c1ccc(OC)cc1)C(=O)OC
[2] CCOC(=O)[C@H](CCCNC(=O)c1ccc(C)c(C)c1)NC(=O)c1ccc(C)c(C)c1
Problem: Of 1 and 2 , which one carries the higher reported EC50? Lab log: write the label of the selected item as the result.
Result: 2

[A] COC(=O)[C@H](CCCNC(=O)c1ccccc1)NC(=O)c1ccccc1
[B] C/C=C(\C)C(=O)NCCC[C@H](NC(=O)/C=C/c1ccc(OC)cc1OC)C(=O)OCC
Problem: Please indicate which item has the smaller measured EC50: A versus B Write down the label of the entry you select.
Result: B
(B: 400 nM, A: 30000 nM)

====

molecular target: T1R umami taste receptor (Homo sapiens, UniProt Q7RTX0+Q7RTX1); assay: in vitro cell-based assay, enhancement of MSG binding; details: cells that express the T1R umami taste receptor
Property: EC50 (nM)

C/C=C(\C)C(=O)NCCC[C@H](NC(=O)c1ccc2c(c1)OCO2)C(=O)OCC [Compound 121]; 500
CCOC(=O)[C@H](CCCNC(=O)c1ccc2c(c1)OCO2)NC(=O)c1ccc2c(c1)OCO2 [Compound 105]; 35000

[1] C/C=C(\C)C(=O)NCCC[C@H](NC(=O)/C=C/c1ccc(OC)cc1OC)C(=O)OC [Compound 132]
[2] C/C=C(\C)C(=O)NCCC[C@H](NC(=O)c1ccc(C)cc1)C(=O)OCC [Compound 109]
Problem: Kindly identify the item with the lower EC50 figure among these two: 1 and 2 Give the chosen item's label as your response.
Result: 1
(1: 100 nM, 2: 1500 nM)

====

target: T1R umami taste receptor (Homo sapiens, UniProt Q7RTX0+Q7RTX1); assay: in vitro cell-based assay, enhancement of MSG binding; conditions: cells that express the T1R umami taste receptor
Property: EC50 (nM)

C/C=C(\C)C(=O)NCCC[C@H](NC(=O)/C=C/c1ccccc1)C(=O)OCC [Compound 123]; 600
C/C=C(\C)C(=O)NCCC[C@H](NC(=O)c1ccc(OC)cc1)C(=O)OCC [Compound 111]; 400
C/C=C(\C)C(=O)NCCC[C@H](NC(=O)c1cc(C)c(C)c(C)c1)C(=O)OC [Compound 114]; 400
C/C=C(\C)C(=O)NCCC[C@H](NC(=O)/C=C/c1ccc(OC)cc1)C(=O)OCC [Compound 129]; 60

[I] C/C=C(\C)C(=O)NCCC[C@H](NC(=O)c1ccc(C)c(C)c1)C(=O)OCC [Compound 113]
[II] C/C=C(\C)C(=O)NCCC[C@H](NC(=O)c1ccccc1)C(=O)OC [Compound 106]
[III] C/C=C(\C)C(=O)NCCC[C@H](NC(=O)c1cc(C)c(C)c(C)c1)C(=O)OCC [Compound 115]
Problem: Order the entries by their reported EC50, beginning at the minimum. # answer = labels listed in requested order
Result: III, I, II
(III: 40 nM, I: 500 nM, II: 3500 nM)

All figures here come from patent US20240156140A1.
